- Test system: α1 adrenergic receptors (rat cerebral cortex)
- method notes: Radioligand binding assay, adrenergic α1 receptors
- measurement context: test compound 1×10^−6 M
- Source text: The specific ligand binding to the receptors is defined as the difference between the total binding and the non-specific binding determined in the presence of the excess of unlabelled ligand. The results are expressed as a percent of control specific binding ((measured specific binding/control specific binding)×100) and as a percent inhibition of control specific binding (100−((measured specific binding/control specific binding)×100)) obtained in the presence of the test compounds. […]
outcome measure: α1 [%] (%)
Quick reminder: number only, in %, skip the unit.

O=S(=O)(NCC1CN(CCOc2cccc3c2OCCO3)C1)c1ccc2cc(Cl)ccc2c1 : 15

// switching to the query compound
Give the measured α1 [%] of `O=S(=O)(NC1CCN(CCOc2cccc3[nH]ccc23)CC1)c1cccc2ccccc12` .
87

----------
Entries and their inhibition at 1 µM values follow.
- target or system: dopaminergic receptors D3 (Homo sapiens, UniProt P35462)
- Sequence (P35462 whole entry): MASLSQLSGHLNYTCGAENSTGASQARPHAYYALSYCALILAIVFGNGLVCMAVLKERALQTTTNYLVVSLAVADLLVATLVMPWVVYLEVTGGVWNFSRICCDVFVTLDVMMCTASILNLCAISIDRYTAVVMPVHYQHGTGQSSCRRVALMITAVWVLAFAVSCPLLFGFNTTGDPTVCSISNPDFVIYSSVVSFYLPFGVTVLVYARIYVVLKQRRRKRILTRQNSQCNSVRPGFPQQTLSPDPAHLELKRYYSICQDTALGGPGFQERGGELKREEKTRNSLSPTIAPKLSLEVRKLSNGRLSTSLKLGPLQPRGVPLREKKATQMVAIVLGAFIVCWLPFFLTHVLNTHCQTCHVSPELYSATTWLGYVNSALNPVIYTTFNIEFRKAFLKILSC
- method notes: Radioligand binding assay, dopaminergic D3 receptors
- measurement context: test compound 1×10^−6 M
Quick reminder: number only, in %, skip the unit.

Example compounds with recorded inhibition at 1 µM:
Cn1ccc2c(S(=O)(=O)NCC3CCN(CCOc4cccc5ccccc45)C3)cccc21 (centres unmarked) : 94
O=S(=O)(NCC1CCN(CCCc2noc3cc(F)ccc23)C1)c1ccccc1 (centres unmarked) : 40
O=S(=O)(NCC1CN(CCOc2cccc3c2OCCO3)C1)c1ccc(Cl)cc1 : 40

Item: O=S(=O)(NCC1CCN(CCCc2noc3cc(F)ccc23)C1)c1cccc(O)c1 (centres unmarked) Test system: dopaminergic receptors D3 (Homo sapiens, UniProt P35462) Read-out: inhibition at 1 µM Value: ?
34

Item: Cc1c(S(=O)(=O)NC2CCN(CCCc3noc4cc(F)ccc34)C2)sc2ccc(F)cc12 (centres unmarked) Test system: dopaminergic receptors D3 (Homo sapiens, UniProt P35462) Read-out: inhibition at 1 µM Value: ?
96

Item: `Cc1c(S(=O)(=O)NCC2CN(CCCc3noc4cc(F)ccc34)C2)sc2ccc(Cl)cc12` Test system: dopaminergic receptors D3 (Homo sapiens, UniProt P35462) Read-out: inhibition at 1 µM Value: ?
94

Item: O=S(=O)(NC1CCN(CCCc2noc3cc(F)ccc23)C1)c1cc2ccc(F)cc2s1 (centres unmarked) Test system: dopaminergic receptors D3 (Homo sapiens, UniProt P35462) Read-out: inhibition at 1 µM Value: ?
94

Item: O=S(=O)(NC1CCN(CCCc2c[nH]c3ccc(Cl)cc23)C1)c1ccccc1 (centres unmarked) Test system: dopaminergic receptors D3 (Homo sapiens, UniProt P35462) Read-out: inhibition at 1 µM Value: ?
86

----------
- Tested on: α1 adrenergic receptors (rat cerebral cortex)
- method notes: Radioligand binding assay, adrenergic α1 receptors
- measurement context: test compound 1×10^−6 M
outcome measure: α1 [%] (%)
Quick reminder: number only, in %, skip the unit.

Example compounds with recorded α1 [%]:
O=S(=O)(NCC1CCN(CCOc2cccc3c2OCCO3)C1)c1ccc(Br)cc1 (stereo not shown) [Compound 305] : 84
O=S(=O)(NCC1CN(CCOc2cccc3c2OCCO3)C1)c1ccc(C(F)(F)F)cc1 [Compound 180] : 39
O=S(=O)(NC1CCN(CCCc2c[nH]c3ccc(Cl)cc23)C1)c1ccc(Cl)cc1 (stereo not shown) [Compound 85] : 9

// switching to the query compound
Give the measured α1 [%] of Cc1cc(S(=O)(=O)NCC2CCN(CCOc3cccc4c3OCCO4)C2)c(C)s1 (stereo not shown) [Compound 312] .
65

----------
- target or system: dopaminergic receptors D2 (Homo sapiens)
- Sequence (P14416 whole entry): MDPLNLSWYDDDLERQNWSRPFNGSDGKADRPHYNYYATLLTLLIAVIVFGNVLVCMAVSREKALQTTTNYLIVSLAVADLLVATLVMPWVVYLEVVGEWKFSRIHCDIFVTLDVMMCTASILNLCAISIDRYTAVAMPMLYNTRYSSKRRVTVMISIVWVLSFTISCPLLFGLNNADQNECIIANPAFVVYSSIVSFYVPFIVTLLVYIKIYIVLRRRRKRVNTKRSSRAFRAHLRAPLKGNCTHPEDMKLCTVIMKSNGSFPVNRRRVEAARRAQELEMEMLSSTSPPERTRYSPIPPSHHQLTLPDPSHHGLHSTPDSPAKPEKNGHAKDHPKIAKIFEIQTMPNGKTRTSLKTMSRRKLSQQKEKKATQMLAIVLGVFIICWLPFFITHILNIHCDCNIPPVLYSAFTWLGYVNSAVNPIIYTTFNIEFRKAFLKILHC
- method notes: Radioligand binding assay, dopaminergic D2 receptors
- measurement context: binding assay, test compound 1×10^−6 M
Rule: inhibition at 1 µM under 60% gives FALSE, otherwise TRUE.

O=S(=O)(NCC1CCN(CCCc2noc3cc(F)ccc23)C1)c1ccc(F)cc1 (centres unmarked) [Compound 252] : FALSE

In the following, a different compound is considered.
Determine whether measured inhibition at 1 µM meets or exceeds 60% for O=S(=O)(N[C@@H]1CCN(CCCc2noc3cc(F)ccc23)C1)c1csc2ccccc12 [Compound 224]
TRUE

----------
- target or system: 5-HT2C serotoninergic receptors (Homo sapiens, UniProt P28335)
- Sequence (P28335 33-458): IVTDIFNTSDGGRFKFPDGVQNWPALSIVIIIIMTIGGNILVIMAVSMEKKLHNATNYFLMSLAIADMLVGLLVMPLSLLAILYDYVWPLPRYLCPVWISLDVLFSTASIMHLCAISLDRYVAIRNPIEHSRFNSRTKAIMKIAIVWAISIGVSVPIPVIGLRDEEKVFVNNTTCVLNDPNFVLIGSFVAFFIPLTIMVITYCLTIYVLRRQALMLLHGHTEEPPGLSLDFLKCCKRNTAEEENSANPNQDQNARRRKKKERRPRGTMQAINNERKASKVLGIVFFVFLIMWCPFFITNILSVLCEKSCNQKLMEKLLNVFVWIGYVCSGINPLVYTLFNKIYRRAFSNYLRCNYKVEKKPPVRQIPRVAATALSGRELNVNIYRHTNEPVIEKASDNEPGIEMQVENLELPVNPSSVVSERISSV
- method notes: Cellular functional assay, 5-HT2C serotoninergic receptors
- Format: cell-based
- measurement context: antagonist mode
Entries and their 5-HT2C antag [%] values follow.
Quick reminder: number only, in %, skip the unit.

CC(C)(C)c1ccc(S(=O)(=O)NCC2CN(CCOc3cccc4c3OCCO4)C2)cc1 [Compound 181] : 6
O=S(=O)(NC1CN(CCOc2cccc3c2OCCO3)C1)c1cccc2ccccc12 [Compound 94] : −57
O=S(=O)(NCC1CN(CCOc2cccc3c2OCCO3)C1)c1ccc(Cl)c(Cl)c1 [Compound 183] : 12

Give the measured 5-HT2C antag [%] of O=S(=O)(NCC1CN(CCOc2cccc3ccccc23)C1)c1ccc2ccccc2c1 [Compound 122] .
−10

----------
- target or system: dopaminergic receptors D3 (Homo sapiens, UniProt P35462)
- method notes: Radioligand binding assay, dopaminergic D3 receptors
- measurement context: test compound 1×10^−6 M
- Excerpt: The specific ligand binding to the receptors is defined as the difference between the total binding and the non-specific binding determined in the presence of the excess of unlabelled ligand. The results are expressed as a percent of control specific binding ((measured specific binding/control specific binding)×100) and as a percent inhibition of control specific binding (100−((measured specific binding/control specific binding)×100)) obtained in the presence of the test compounds. […]
Entries and their inhibition at 1 µM values follow.
Provide a numeric answer, followed by its unit.

Example compounds with recorded inhibition at 1 µM:
O=S(=O)(NCC1CCN(CCCc2noc3cc(F)ccc23)C1)c1cc2ccccc2o1 (centres unmarked) : 62%
O=S(=O)(NCC1CCN(CCCc2noc3cc(F)ccc23)C1)c1csc2ccccc12 (centres unmarked) : 65%
Cc1c(S(=O)(=O)NC2CCN(CCCc3noc4cc(F)ccc34)CC2)sc2ccc(Cl)cc12 : 61%
Cc1c(S(=O)(=O)NCC2CN(CCCc3noc4cc(F)ccc34)C2)sc2ccc(F)cc12 : 94%
Cc1ccc(S(=O)(=O)NCC2CCN(CCOc3cccc4c3OCCO4)C2)cc1 (centres unmarked) : 33%
O=S(=O)(NC1CCN(CCCc2noc3cc(F)ccc23)C1)c1ccc2cc(Cl)ccc2c1 (centres unmarked) : 95%

Give the measured inhibition at 1 µM of `O=S(=O)(NCC1CN(CCOc2cccc3ccccc23)C1)c1cc2ccc(Cl)cc2s1` .
98%

Give the measured inhibition at 1 µM of O=S(=O)(NC1CCN(CCCc2noc3cc(F)ccc23)C1)c1cccc(Cl)c1 (centres unmarked) .
30%

----------
- target or system: α2C adrenergic receptors (Homo sapiens, UniProt P18825)
- Construct: expressed in transfected cells; host or cells: CHO cells
- Sequence (P18825 whole entry): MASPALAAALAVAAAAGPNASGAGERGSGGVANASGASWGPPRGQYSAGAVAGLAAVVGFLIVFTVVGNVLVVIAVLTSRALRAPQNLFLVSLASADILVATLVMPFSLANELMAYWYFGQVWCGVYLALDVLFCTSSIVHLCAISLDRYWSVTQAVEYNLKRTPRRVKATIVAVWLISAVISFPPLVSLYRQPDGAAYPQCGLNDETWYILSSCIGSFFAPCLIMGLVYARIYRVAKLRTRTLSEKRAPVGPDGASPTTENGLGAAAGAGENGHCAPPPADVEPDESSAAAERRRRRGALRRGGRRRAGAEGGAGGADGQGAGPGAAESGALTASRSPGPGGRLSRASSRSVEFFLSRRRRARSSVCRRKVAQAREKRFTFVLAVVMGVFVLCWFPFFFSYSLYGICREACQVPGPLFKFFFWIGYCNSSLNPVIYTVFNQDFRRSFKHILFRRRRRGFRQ
- method notes: Radioligand binding assay, adrenergic α2C receptors
- measurement context: test compound 1×10^−6 M
Entries and their inhibition at 1 µM values follow.
Quick reminder: number only, in %, skip the unit.

COc1ccc2cc(S(=O)(=O)NC3CCN(CCCc4noc5cc(F)ccc45)C3)ccc2c1 (stereo not shown) : 90
COc1ccc2cc(S(=O)(=O)N[C@H]3CCN(CCCc4noc5cc(F)ccc45)C3)ccc2c1 : 89
O=S(=O)(NC1CCN(CCCc2c[nH]c3ccc(F)cc23)C1)c1ccc2ccccc2c1 (stereo not shown) : 88

// switching to the query compound
Give the measured inhibition at 1 µM of O=S(=O)(NC1CCN(CCOc2nsc3ccccc23)C1)c1ccc2ccccc2c1 (stereo not shown) .
92

----------
- target or system: 5-HT6 receptor (Homo sapiens, UniProt P50406)
- Construct: purchased PerkinElmer
- Sequence (P50406 whole entry): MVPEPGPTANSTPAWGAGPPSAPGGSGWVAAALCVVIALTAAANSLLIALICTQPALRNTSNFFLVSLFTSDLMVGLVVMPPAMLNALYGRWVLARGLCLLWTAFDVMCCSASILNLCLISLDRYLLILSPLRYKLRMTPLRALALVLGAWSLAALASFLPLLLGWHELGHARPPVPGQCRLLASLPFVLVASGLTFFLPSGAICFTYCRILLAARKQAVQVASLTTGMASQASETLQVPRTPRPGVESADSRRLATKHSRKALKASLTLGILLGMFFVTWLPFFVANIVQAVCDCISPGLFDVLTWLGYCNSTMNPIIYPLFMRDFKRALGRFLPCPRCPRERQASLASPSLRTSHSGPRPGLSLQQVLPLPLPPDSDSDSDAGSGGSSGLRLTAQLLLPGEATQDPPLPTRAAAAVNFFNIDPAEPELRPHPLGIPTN
- method notes: Radioligand binding assay, serotoninergic 5-HT6 receptors;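 note: test compound at 1 µM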
- measurement context: binding assay result in %, Table 5a
Lab note: compare 5-HT6 [%] with 20%, writing label 1 if less and label 0 if equal or more.

O=S(=O)(NC1CN(CCOc2cccc3c2OCCO3)C1)c1ccc(F)cc1 : label 1

Decide: 5-HT6 [%] of `O=S(=O)(NC1CCN(CCOc2cccc3c2OCCO3)CC1)c1ccccc1` strictly below 20%?
label 0

Decide: 5-HT6 [%] of `O=S(=O)(NC1CCN(CCOc2cccc3[nH]ccc23)CC1)c1ccccc1` strictly below 20%?
label 1

Decide: 5-HT6 [%] of `CC1(C)Cc2cccc(OCCN3CCC(NS(=O)(=O)c4ccc5ccccc5c4)CC3)c2O1` strictly below 20%?
label 1

Decide: 5-HT6 [%] of `O=S(=O)(NCC1CCN(CCCc2noc3cc(F)ccc23)CC1)c1cccc2ccccc12` strictly below 20%?
label 0

Decide: 5-HT6 [%] of `O=S(=O)(NC1CCN(CCOc2cccc3ccccc23)CC1)c1ccc2ccccc2c1` strictly below 20%?
label 0

Decide: 5-HT6 [%] of `Cc1cccc(S(=O)(=O)NC2CCN(CCCc3noc4cc(F)ccc34)CC2)c1` strictly below 20%?
label 0

Decide: 5-HT6 [%] of `O=S(=O)(NC1CN(CCOc2cccc3c2OCCO3)C1)c1ccccc1` strictly below 20%?
label 1
